We begin with a simple list: items and their reported IC50.
- study system: JAK1 (Homo sapiens, UniProt P23458)
- Construct: endogenous in cells
- Sequence (P23458 whole entry): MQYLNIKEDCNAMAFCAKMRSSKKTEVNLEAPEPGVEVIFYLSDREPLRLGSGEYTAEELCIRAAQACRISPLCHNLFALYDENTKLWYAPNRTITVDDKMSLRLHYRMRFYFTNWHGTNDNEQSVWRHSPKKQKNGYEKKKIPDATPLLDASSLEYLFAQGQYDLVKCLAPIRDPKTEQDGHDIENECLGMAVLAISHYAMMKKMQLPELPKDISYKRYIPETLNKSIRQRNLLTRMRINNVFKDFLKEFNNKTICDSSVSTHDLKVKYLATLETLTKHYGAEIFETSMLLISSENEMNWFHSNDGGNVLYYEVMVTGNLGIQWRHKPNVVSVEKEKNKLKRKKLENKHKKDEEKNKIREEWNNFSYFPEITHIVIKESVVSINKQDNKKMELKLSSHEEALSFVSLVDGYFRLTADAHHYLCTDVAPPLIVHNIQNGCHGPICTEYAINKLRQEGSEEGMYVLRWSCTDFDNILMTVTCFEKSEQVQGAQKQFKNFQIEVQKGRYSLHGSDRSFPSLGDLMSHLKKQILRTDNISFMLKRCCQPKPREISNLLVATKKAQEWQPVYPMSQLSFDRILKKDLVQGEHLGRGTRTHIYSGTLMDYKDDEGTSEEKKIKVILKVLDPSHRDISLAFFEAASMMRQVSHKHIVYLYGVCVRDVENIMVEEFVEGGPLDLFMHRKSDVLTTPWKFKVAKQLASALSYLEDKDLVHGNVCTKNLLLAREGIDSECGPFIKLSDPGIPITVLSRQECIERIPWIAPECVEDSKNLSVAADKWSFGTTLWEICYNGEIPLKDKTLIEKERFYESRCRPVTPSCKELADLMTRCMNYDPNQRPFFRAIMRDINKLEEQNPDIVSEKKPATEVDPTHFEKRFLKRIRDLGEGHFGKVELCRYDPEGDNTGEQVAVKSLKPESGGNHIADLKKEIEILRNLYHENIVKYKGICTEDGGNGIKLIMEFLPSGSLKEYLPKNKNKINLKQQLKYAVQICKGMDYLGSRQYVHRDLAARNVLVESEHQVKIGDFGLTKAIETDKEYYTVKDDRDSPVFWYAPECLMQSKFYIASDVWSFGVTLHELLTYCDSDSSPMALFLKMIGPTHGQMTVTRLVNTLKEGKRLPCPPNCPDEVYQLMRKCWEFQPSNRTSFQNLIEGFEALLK
- assay procedure: Kinobeads assay, JAK1
- condition: mixed Molt4/Ramos lysate, read-out: Inhibition values (IC50) JAK1

Cn1cc(Nc2ncc(Cl)c(NC(C(=O)O)c3ccccc3)n2)cn1 (stereo not drawn)
1000 to 10000 nM
CNC(=O)Cn1cc(Nc2ncc(Cl)c(N[C@H](CO)c3ccccc3F)n2)cn1
100 to 1000 nM
Cn1cc(Nc2ncc(Cl)c(NC(CO)c3ccc(F)cc3)n2)cn1 (stereo not drawn)
1000 to 10000 nM
CNC(=O)Cn1cc(Nc2ncc(Cl)c(N[C@H](CO)c3cc(F)cc(-c4cnn(C)c4)c3)n2)cn1
1000 to 10000 nM
Cc1cnc(Nc2cnn(CC(F)F)c2)nc1N[C@H](CO)c1cc(F)ccc1F
100 to 1000 nM

// next entry
Entry OCCn1ccc(Nc2ncc(Cl)c(NC(CO)c3cccc(F)c3)n2)n1 (stereo not drawn) , IC50 reported as > 10000 nM

The origin of these recorded values is patent US20140179664A1.
